Where these numbers come from: patent US20130287781A1

target: T1, GST-human NOGO-A56 (human); test: SPR (Biacore T100), reverse format: antibody captured by Protein A, GST Nogo-A 5+6 0.125-8 nM flowed over; mean (SD in brackets)
T1 construct: Expressed in E. coli BL21 from pGEX-6P1 and purified on glutathione-sepharose; the GST tag is part of the protein in the assays; also called GST-Nogo-A 5+6; GST Nogo-A 5 + 6
T1 sequence (chain, as listed by the source limits assumed): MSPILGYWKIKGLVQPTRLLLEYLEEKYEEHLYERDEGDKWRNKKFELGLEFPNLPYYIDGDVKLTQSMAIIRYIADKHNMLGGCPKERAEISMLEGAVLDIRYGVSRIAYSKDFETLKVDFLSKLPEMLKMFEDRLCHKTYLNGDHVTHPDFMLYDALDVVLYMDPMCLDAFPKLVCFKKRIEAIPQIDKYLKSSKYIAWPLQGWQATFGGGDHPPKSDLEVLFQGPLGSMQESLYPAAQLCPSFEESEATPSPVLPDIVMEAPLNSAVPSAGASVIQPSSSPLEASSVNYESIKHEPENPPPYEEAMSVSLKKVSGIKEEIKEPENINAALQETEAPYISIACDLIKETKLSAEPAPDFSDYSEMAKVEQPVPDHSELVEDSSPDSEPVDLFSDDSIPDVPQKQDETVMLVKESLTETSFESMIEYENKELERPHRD
pKd values by entry
Remember, pKd is on a log scale: it is -log10 of the molar concentration.

[
  {
    "binder": "H28L13 (antibody, human IgG1, kappa, V domains shown, IgG1 (L235A, G237A) / kappa; CAMPATH-1H signal (1-19) left out; also called H28FL L13FL) VH: QVQLVQSGAEVKKPGASVKVSCKASGYTFTSYWMHWVRQAPGQGLEWIGNINPSNGGTNYNEKFKSKATMTRDTSTSTAYMELSSLRSEDTAVYYCELMQGYWGQGTLVTVSS VL: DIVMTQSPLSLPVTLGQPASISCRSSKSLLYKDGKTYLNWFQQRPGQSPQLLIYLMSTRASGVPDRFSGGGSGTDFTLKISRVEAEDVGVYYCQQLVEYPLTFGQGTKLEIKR",
    "experimental_endpoint": "pKd",
    "numeric_result": 9.47
  },
  {
    "binder": "H20L16 (antibody, human IgG1, kappa, V domains shown, IgG1 (L235A, G237A) / kappa; CAMPATH-1H signal (1-19) left out) VH: QVQLVQSGAEVKKPGASVKVSCKASGYTFTSYWMHWVRQAPGQGLEWIGNINPSNGGTNYNEKFKSKATMTRDTSTSTAYMELSSLRSEDTAVYYCELGQGYWGQGTLVTVSS VL: DIVMTQSPLSNPVTLGQPVSISCRSSKSLLYKDGKTYLNWFLQRPGQSPQLLIYLMSTRASGVPDRFSGGGSGTDFTLKISRVEAEDVGVYYCQQLVEYPLTFGQGTKLEIKR",
    "experimental_endpoint": "pKd",
    "numeric_result": 9.51
  }
]

Attention now turns to another entry.
// field: pKd; key: H27L16 (antibody, human IgG1, kappa, V domains shown, IgG1 (L235A, G237A) / kappa; CAMPATH-1H signal (1-19) left out; also called H27FL L16FL) VH: QVQLVQSGAEVKKPGASVKVSCKASGYTFTSYWMHWVKQRPGQGLEWIGNINPSNGGTNYNEKFKSKATLTVDKSTSTAYMELSSLRSEDTAVYYCELMQGYWGQGTLVTVSS VL: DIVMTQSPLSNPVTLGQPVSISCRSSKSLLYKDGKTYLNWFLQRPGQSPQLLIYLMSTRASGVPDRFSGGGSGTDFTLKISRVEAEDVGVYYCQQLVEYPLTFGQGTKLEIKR ; value = 9.51
